Test system: XIP peptide (Xip251-270)
Test: small-molecule binders of XIP peptide, primary screen, biochemical, small-molecule microarray, fluorescence 635/667 nm, 0.5 µg/mL protein (AID 1183)
Conditions: small-molecule microarray binding, fluorescence 635 nm; higher = more signal
Assign y to entries whose composite z-score meets or exceeds -0.1; assign n to the rest.

Illustrative cases are given below, each with its answer.
INSERT INTO measurements (compound, classlabel) VALUES
  ('C#CCCCON=C1[C@H]2CCn3c(=O)n(C)c(=O)n3[C@H]2[C@H](O)[C@@H]2O[C@H]12', 'y'),
  ('CC(C)=CCCC(C)=CCON=C1C[C@@H](O)[C@@H](O)[C@@H]2[C@@H]3C(=O)N(c4cccc(Oc5ccccc5)c4)C(=O)[C@@H]3CC[C@@H]12', 'y');

# check: composite z-score of `CSCC[C@@H]1NC(=O)CC=C[C@@H](C)COC(=O)[C@@H](C)COC1=O` is greater than or equal to -0.1
n

For this compound, is measured composite z-score -0.1 or higher? `CCOC(=O)CCN1C(=O)[C@H]2[C@H]3[C@H](O)[C@H](O)CC(=NOCC(C)C)[C@H]3CC[C@H]2C1=O`
y

Decide: is the reported value of composite z-score for `CCc1cc2c(nc1CC)CCN(CCC(C)=NO[C@H](C)c1cn([C@@H]3COC[C@H]3O)nn1)C2` equal to or greater than -0.1?
y

Hello, I need to know if `COC(=O)CC=C[C@@H](C)[C@@H](C=NOC[C@@H](O)[C@H]1O[C@@H]2OC(C)(C)O[C@@H]2[C@H]1O)NS(=O)(=O)c1ccc(C)cc1` has measured composite z-score not below -0.1. Thanks!
y

Quick check: does `CO[C@H]1COC(=O)[C@H](C)NC(=O)[C@@H](C)COC(=O)[C@H]2CCCN2C(=O)CC=C[C@H]1C` have composite z-score greater than or equal to -0.1?
n

Does `CCCCC#C[C@@H]1C=C[C@H](Oc2cc(OC)c(OC)c(OC)c2)[C@@H](COC(=O)OCC)O1` have a reported composite z-score of at least -0.1?
y

Assess whether reported composite z-score for `COc1ccc(COC(=O)NN=C2C[C@@H](O)[C@@H](O)[C@@H]3[C@@H]4C(=O)N(c5cccc(Oc6ccccc6)c5)C(=O)[C@@H]4CC[C@@H]23)cc1` sits at -0.1 or higher.
n

State whether the measured composite z-score reaches -0.1, counting equality as reaching it, for `C#CCCCON=C1C[C@@H](O)[C@@H](O)[C@@H]2[C@@H]3C(=O)N(C(C)(C)C)C(=O)[C@@H]3CC[C@H]12`
n

Hi, just wondering whether `C=CC1=C[C@H](O)[C@@H]2O[C@@H]2C12OCCCO2` shows composite z-score of -0.1 or higher.
y

* * *

Test system: Human papillomavirus type 1a E7 protein (residues 1-88)
Experiment: HPV1a E7 small-molecule binders, primary screen, biochemical, small-molecule microarray, residues 1-88, 635 nm (AID 1129)
Settings: small-molecule microarray binding, fluorescence 635 nm; higher = more signal
readoutType: composite z-score

INSERT INTO results (compound, obsvalue) VALUES
  ('COC(=O)[C@H](C)NC(=O)CCC1CC(OC(=O)NCc2ccc3c(c2)OCO3)CC2(CCCC(COC(=O)NCC(c3ccccc3)c3ccccc3)O2)O1 (some centres not stated)', 1.22),
  ('CO[C@H](C1CCCCC1)[C@H](C)C=CCC(=O)OCCCc1ccccc1', -1.15),
  ('CCOC(=O)NN=C1C[C@@H](O)[C@@H](O)[C@@H]2[C@@H]3C(=O)N(C(C)(C)C)C(=O)[C@@H]3CC[C@H]12', 0.215),
  ('CC(C)CON=C1C[C@@H](O)[C@@H](O)[C@@H]2[C@@H]3C(=O)N(Cc4ccc5c(c4)OCO5)C(=O)[C@@H]3CC[C@H]12', 0.689),
  ('CC(C)(C)N1C(=O)[C@H]2[C@H]3[C@H](O)C=CC(=O)[C@@H]3CC[C@H]2C1=O', 0.025);

# return composite z-score for each item in the list
1. CCN1C(=O)[C@H]2[C@H]3[C@H](O)[C@H](O)CC(=NNC(=O)OCc4ccc(OC)cc4)[C@@H]3CC[C@H]2C1=O
2. C[C@@H]1CC[C@H]2C(=O)O[C@@H](COc3ccc(C(C)(C)C)cc3)CN2[C@@H]1c1ccc(Br)cc1

1: -0.562; 2: -0.741
